Taken from patent US20200010567A1.

System Name: T1, (PA)15: H-C(PA)15-OH
T1 construct: synthetic, not coupled to BSA; also called poly-PA DPR protein peptide
T1 peptide: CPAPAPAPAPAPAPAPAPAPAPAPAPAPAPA
Assay Details: indirect ELISA, coated peptide

Binder	binding result
NI-308.5G2 (antibody, V domains shown, Recombinant complete human IgG1, kappa) VH: EVQLVQSGADLRNPGASVTVSCTASGYHFADNAINWLRQAPGQRLEWMGWINIYSGNTKYSQNFQGRVTFTRNTSASTAFMHLRSLRSEDTAVYFCARDPDSSGYYLPYFDYWGQGTLVTVSS VL: DIQLTQSPDSLTLSLGERATINCKSSQSVFYNSNNKNYLAWYQQKPGQPPKLLMYWASTRESGVTDRFSGSGSGTDFTLTITNLQAEDVAVYYCQQFYSSPLTFGGGTKVEIK	no binding
NI-308.12A3 (antibody, V domains shown, Recombinant complete human IgG1, kappa) VH: EVQLVETGGGLVQPGGSLRLSCVGSGFLFSDFEMDWVRQAPGKGLEWISYISGDGNIIYQTDSVKGRFTISRDNAKNSLFLQMDSLTVEDTAVYYCARDARENCGGDCYSTSFDFWGQGTLVTVSS VL: DIQMTQSPDSLAVSLGERATINCKSSQSLLYTANNRNYLAWYQKKAGQPPKLLIHWASTRASGVPDRFSGSGSGTDFILTISSLQAEDVAVYFCQHYYNSPRTFGQGTKVEIK	no binding
NI-308.46F8 (antibody, V domains shown) VH: QVQLVESGGGVVRPGGSLRLSCTASGFTFDEYGMSWVRQVPGKGLEWVSGINWNGATTRYADSVKGRFTISRDNAKNSLYLQMNSLRAEDTALYHCARDGCRNTSCYIWDWFDPWGQGTLVTVSS VL: CQSVLTQPPSVSAAPGQKVTISCSGSSSNIGNNYVCWYQNLPGTAPKLLIYDDNKRPSGIPDRFSGSKSGTSATLGITGLQTGDEADYYCGTWDSSLSVVVFGGGTKLTVL	no binding
